Molecular target: Substance-P receptor (Homo sapiens, UniProt P25103); also: in other assays of this panel Not Active means under 50% inhibition at 10 µM
Sequence (P25103 whole entry): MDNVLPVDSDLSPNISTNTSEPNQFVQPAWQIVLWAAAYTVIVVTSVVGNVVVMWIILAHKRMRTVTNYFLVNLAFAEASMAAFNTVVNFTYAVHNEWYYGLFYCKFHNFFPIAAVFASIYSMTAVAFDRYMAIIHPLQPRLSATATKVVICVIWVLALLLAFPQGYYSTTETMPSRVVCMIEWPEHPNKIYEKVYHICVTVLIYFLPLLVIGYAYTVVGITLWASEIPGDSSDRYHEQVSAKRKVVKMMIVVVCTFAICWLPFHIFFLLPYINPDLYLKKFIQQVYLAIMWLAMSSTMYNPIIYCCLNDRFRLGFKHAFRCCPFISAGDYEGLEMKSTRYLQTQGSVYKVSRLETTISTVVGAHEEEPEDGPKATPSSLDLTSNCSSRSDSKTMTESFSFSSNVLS
Assay type: cell membranes, CHO, Membrane
Conditions: cho
*1 amine or outer side, *2 acyl side, *3 side chain or, on linkers, in order; H or OH if unused. Where a SMILES comes first, the peptide text is derived from it. Bridges are numbered along the chain shown (N, C = ends). Roman numbers before positions name the chains, in order. [ ]: non-standard residue; d: D form. Actinocin(1to9) = Cc1c2oc3c(C)ccc(C(=O)[*:2])c3nc-2c(C(=O)[*:1])c(N)c1=O; NMeV = CN[C@H](C(=O)O)C(C)C; Sar = CNCC(=O)O
Endpoint: IC50

Some molecules with known IC50 results, for comparison:
{"Molecule": "O=C(O)CCCc1ccc(N(CCCl)CCCl)cc1", "Endpoint": "IC50", "Observed result": "Not Active"}
{"Molecule": "CN(Cc1ccc(C(C)(C)C)cc1)Cc1cccc2ccccc12", "Endpoint": "IC50", "Observed result": "Not Active"}
{"Molecule": "CC[C@@H](CO)NC(=O)[C@@H]1C=C2c3cccc4[nH]cc(c34)C[C@H]2N(C)C1", "Endpoint": "IC50", "Observed result": "Not Active"}
{"Molecule": "C[C@]12CCC(=O)C=C1CC[C@@H]1[C@@H]2CC[C@@]2(C)[C@H]1CC[C@]2(C)O", "Endpoint": "IC50", "Observed result": "Not Active"}
{"Molecule": "Cc1c(O)c(=O)ccn1C", "Endpoint": "IC50", "Observed result": "Not Active"}
{"Molecule": "CCCCc1oc2ccccc2c1C(=O)c1cc(I)c(OCCN(CC)CC)c(I)c1", "Endpoint": "IC50", "Observed result": "Not Active"}
{"Molecule": "C[C@]12CC[C@@H]3c4ccc(O)cc4CC[C@H]3[C@@H]1CCC2=O", "Endpoint": "IC50", "Observed result": "Not Active"}
{"Molecule": "CC(NC(C)(C)C)C(=O)c1cccc(Cl)c1 (stereo not given)", "Endpoint": "IC50", "Observed result": "Not Active"}

Lab note: measured IC50 of Cc1c2oc3c(C)ccc(C(=O)N[C@@H]4C(=O)N[C@H](C(C)C)C(=O)N5CCC[C@H]5C(=O)N(C)CC(=O)N(C)[C@@H](C(C)C)C(=O)O[C@@H]4C)c3nc-2c(C(=O)N[C@@H]2C(=O)N[C@H](C(C)C)C(=O)N3CCC[C@H]3C(=O)N(C)CC(=O)N(C)[C@@H](C(C)C)C(=O)O[C@@H]2C)c(N)c1=O [DACTINOMYCIN] (I: T[dV]P[Sar][NMeV] / II: T[dV]P[Sar][NMeV]; ester I:1-I:C, II:1-II:C; linker I:N-II:N via Actinocin(1to9)) was Not Active

Lab note: measured IC50 of N[C@@H](Cc1ccc(O)c(O)c1)C(=O)O was Not Active

Lab note: measured IC50 of Clc1cccc(Cl)c1NC1=NCCN1 was Not Active

Lab note: measured IC50 of COc1nc(C)nc(Cl)c1NC1=NCCN1 was Not Active

Lab note: measured IC50 of CCC(C)n1ncn(-c2ccc(N3CCN(c4ccc(OCC5COC(Cn6cncn6)(c6ccc(Cl)cc6Cl)O5)cc4)CC3)cc2)c1=O (stereo not given) was Not Active

Lab note: measured IC50 of Cc1cccc(N(C)C(=S)Oc2ccc3ccccc3c2)c1 [TOLNAFTATE] was Not Active

Lab note: measured IC50 of Nc1nc2nc[nH]c2c(=S)[nH]1 was Not Active

All values here come from ChEMBL document CHEMBL1909046.
